Entries and their Ki
molecular target: Procathepsin L (Homo sapiens, UniProt P07711); test: Competitive inhibition of human recombinant cathepsin L endopeptidase activity using Z-FR-AMC substrate expressed in Escherichia coli assessed as inhibition constant for enzyme-inhibitor complex
Sequence (P07711 whole entry): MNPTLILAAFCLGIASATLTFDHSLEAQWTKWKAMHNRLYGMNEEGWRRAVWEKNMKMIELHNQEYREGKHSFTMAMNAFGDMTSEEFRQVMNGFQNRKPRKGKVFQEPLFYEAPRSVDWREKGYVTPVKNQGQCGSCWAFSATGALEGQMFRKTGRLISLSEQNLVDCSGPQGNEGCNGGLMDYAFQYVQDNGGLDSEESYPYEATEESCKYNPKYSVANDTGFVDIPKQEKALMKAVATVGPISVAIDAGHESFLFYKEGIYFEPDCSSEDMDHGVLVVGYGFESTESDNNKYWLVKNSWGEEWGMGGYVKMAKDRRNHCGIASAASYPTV

>  <MOLECULE_SMILES>
Nc1c(Br)cc([N+](=O)[O-])c2ccccc12

>  <Ki / µM>
182

$$$$
>  <MOLECULE_SMILES>
CC1CCN(c2ccc([N+](=O)[O-])c3cccnc23)CC1

>  <Ki / µM>
155

$$$$
>  <MOLECULE_SMILES>
O=[N+]([O-])c1ccc(N2CCCC2)c2ccccc12

>  <Ki / µM>
245

$$$$
>  <MOLECULE_SMILES>
N#CCNCc1cc([N+](=O)[O-])c2cccnc2c1O

>  <Ki / µM>
124

$$$$

----------
species: Homo sapiens; test: Selectivity ratio of Ki for human recombinant cathepsin L to Ki for human recombinant cathepsin B
QUANTITY_KIND: Ratio Ki

>  <MOLECULE>
O=[N+]([O-])c1ccc(N2CCCC2)c2ccccc12

>  <QUANTITY_KIND>
Ratio Ki

>  <VALUE_COMPARATOR>
>

>  <REPORTED_MEASUREMENT>
6

$$$$
>  <MOLECULE>
CC1CCN(c2ccc([N+](=O)[O-])c3cccnc23)CC1

>  <QUANTITY_KIND>
Ratio Ki

>  <VALUE_COMPARATOR>
=

>  <REPORTED_MEASUREMENT>
6

$$$$
>  <MOLECULE>
Nc1c(Br)cc([N+](=O)[O-])c2ccccc12

>  <QUANTITY_KIND>
Ratio Ki

>  <VALUE_COMPARATOR>
>

>  <REPORTED_MEASUREMENT>
6

$$$$
>  <MOLECULE>
O=[N+]([O-])c1ccc(O)c2ncccc12 [NITROXOLINE]

>  <QUANTITY_KIND>
Ratio Ki

>  <VALUE_COMPARATOR>
=

>  <REPORTED_MEASUREMENT>
4.8

$$$$
>  <MOLECULE>
N#CCNCc1cc([N+](=O)[O-])c2cccnc2c1O

>  <QUANTITY_KIND>
Ratio Ki

>  <VALUE_COMPARATOR>
=

>  <REPORTED_MEASUREMENT>
23

$$$$

----------
Entries and their pKi
target: Cathepsin B (Homo sapiens); assay: Mixed inhibition of human recombinant cathepsin B exopeptidase activity using Abz-Gly-Ile-Val-Arg-Ala-Lys(Dnp)-OH substrate assessed as inhibition constant for enzyme-inhibitor complex
pKi: −log10 of the molar value.
QUANTITY_KIND: pKi

>  <COMPOUND>
CCN(CC)C(=O)C1CCCN(c2ccc([N+](=O)[O-])c3cccnc23)C1 (racemic)

>  <QUANTITY_KIND>
pKi

>  <REPORTED_MEASUREMENT>
3.98

$$$$
>  <COMPOUND>
N#CCN(Cc1ccccc1)Cc1cc([N+](=O)[O-])c2cccnc2c1O

>  <QUANTITY_KIND>
pKi

>  <REPORTED_MEASUREMENT>
4.10

$$$$

----------
species on record: Homo sapiens; assay: Selectivity ratio of Ki for human liver cathepsin H to Ki for human recombinant cathepsin B

>  <MOLECULE_SMILES>
CC1CCN(c2ccc([N+](=O)[O-])c3cccnc23)CC1

>  <Ratio Ki>
9

$$$$
>  <MOLECULE_SMILES>
O=[N+]([O-])c1ccc(O)c2ncccc12

>  <Ratio Ki>
7.4

$$$$
>  <MOLECULE_SMILES>
O=[N+]([O-])c1ccc(N2CCCC2)c2ccccc12

>  <Ratio Ki>
7

$$$$
>  <MOLECULE_SMILES>
Nc1c(Br)cc([N+](=O)[O-])c2ccccc12

>  <Ratio Ki>
11

$$$$
>  <MOLECULE_SMILES>
N#CCNCc1cc([N+](=O)[O-])c2cccnc2c1O

>  <Ratio Ki>
24

$$$$

----------
target: Cathepsin B (Homo sapiens, UniProt P07858); assay: Uncompetitive inhibition of human recombinant […] assessed as inhibition constant for enzyme-substrate-inhibitor complex
pKi: −log10 of the molar value.

>  <MOLECULE_SMILES>
O=C(O)c1cc([N+](=O)[O-])c2cccnc2c1O

>  <TARGET_DESC>
Cathepsin B (Homo sapiens, UniProt P07858)

>  <pKi>
3.93

$$$$
>  <MOLECULE_SMILES>
Nc1c(Br)cc([N+](=O)[O-])c2ccccc12

>  <TARGET_DESC>
Cathepsin B (Homo sapiens, UniProt P07858)

>  <pKi>
4.49

$$$$
>  <MOLECULE_SMILES>
O=[N+]([O-])c1cc([N+](=O)[O-])c2cccnc2c1O

>  <TARGET_DESC>
Cathepsin B (Homo sapiens, UniProt P07858)

>  <pKi>
4.14

$$$$
>  <MOLECULE_SMILES>
N#CCNCc1cc([N+](=O)[O-])c2cccnc2c1O

>  <TARGET_DESC>
Cathepsin B (Homo sapiens, UniProt P07858)

>  <pKi>
5.30

$$$$
>  <MOLECULE_SMILES>
CN(CCc1ccccc1)c1ccc([N+](=O)[O-])c2cccnc12

>  <TARGET_DESC>
Cathepsin B (Homo sapiens, UniProt P07858)

>  <pKi>
3.76

$$$$
>  <MOLECULE_SMILES>
N#CCN(Cc1ccccc1)Cc1cc([N+](=O)[O-])c2cccnc2c1O

>  <TARGET_DESC>
Cathepsin B (Homo sapiens, UniProt P07858)

>  <pKi>
4.72

$$$$

----------
target: Cathepsin B (Homo sapiens); experiment: Mixed inhibition of human recombinant cathepsin B […] assessed as inhibition constant for enzyme-inhibitor complex
pKi: −log10 of the molar value.

>  <COMPOUND>
CN(CC#N)Cc1cc([N+](=O)[O-])c2cccnc2c1O

>  <TARGET_DESC>
Cathepsin B (Homo sapiens)

>  <pKi>
3.90

$$$$
>  <COMPOUND>
CC1CCN(c2ccc([N+](=O)[O-])c3cccnc23)CC1

>  <TARGET_DESC>
Cathepsin B (Homo sapiens)

>  <pKi>
3.68

$$$$
>  <COMPOUND>
Nc1ccc([N+](=O)[O-])c2ccccc12

>  <TARGET_DESC>
Cathepsin B (Homo sapiens)

>  <pKi>
3.66

$$$$
>  <COMPOUND>
CN(Cc1ccccc1)c1ccc([N+](=O)[O-])c2cccnc12

>  <TARGET_DESC>
Cathepsin B (Homo sapiens)

>  <pKi>
3.62

$$$$
>  <COMPOUND>
O=[N+]([O-])c1cc(CN2CCN(Cc3cccnc3)CC2)c(O)c2ncccc12

>  <TARGET_DESC>
Cathepsin B (Homo sapiens)

>  <pKi>
3.51

$$$$
>  <COMPOUND>
CCN(CC)C(=O)C1CCCN(c2ccc([N+](=O)[O-])c3cccnc23)C1 (racemic)

>  <TARGET_DESC>
Cathepsin B (Homo sapiens)

>  <pKi>
3.81

$$$$
>  <COMPOUND>
O=[N+]([O-])c1cc(CNCc2ccccc2)c(O)c2ncccc12

>  <TARGET_DESC>
Cathepsin B (Homo sapiens)

>  <pKi>
3.70

$$$$
>  <COMPOUND>
O=[N+]([O-])c1ccc(N2CCOCC2)c2ncccc12

>  <TARGET_DESC>
Cathepsin B (Homo sapiens)

>  <pKi>
3.74

$$$$
>  <COMPOUND>
O=[N+]([O-])c1ccc(N2CCOCC2)c2ccccc12

>  <TARGET_DESC>
Cathepsin B (Homo sapiens)

>  <pKi>
3.54

$$$$
>  <COMPOUND>
CCOC(=O)C1CCN(c2ccc([N+](=O)[O-])c3cccnc23)CC1

>  <TARGET_DESC>
Cathepsin B (Homo sapiens)

>  <pKi>
3.79

$$$$
>  <COMPOUND>
O=[N+]([O-])c1ccc(NCc2ccccn2)c2ncccc12

>  <TARGET_DESC>
Cathepsin B (Homo sapiens)

>  <pKi>
3.97

$$$$

----------
target: Cathepsin B (Homo sapiens); experiment: Mixed inhibition of human recombinant cathepsin B […] assessed as inhibition constant for enzyme-inhibitor complex
pKi: −log10 of the molar value.
Entries and their pKi

>  <MOLECULE_SMILES>
CCOC(=O)[C@@H]1CCCC[C@@H]1NCc1cc([N+](=O)[O-])c2cccnc2c1O

>  <pKi>
3.88

$$$$
>  <MOLECULE_SMILES>
O=[N+]([O-])c1cc(CN2CCN(Cc3ccncc3)CC2)c(O)c2ncccc12

>  <pKi>
3.84

$$$$
>  <MOLECULE_SMILES>
C[C@@H]1CCCCN1Cc1cc([N+](=O)[O-])c2cccnc2c1O

>  <pKi>
3.69

$$$$

----------
target: Cathepsin B (Homo sapiens, UniProt P07858); assay: Mixed inhibition of cathepsin B (unknown origin) endopeptidase activity assessed as inhibition constant for enzyme-substrate-inhibitor complex
pKi: −log10 of the molar value.

>  <MOLECULE_SMILES>
O=[N+]([O-])c1ccc(O)c2ncccc12

>  <pKi>
4.40

$$$$
